Hello, the source for this data is paper PMC10700544, in case you need it.

I'd be grateful if you could share measured response for these entries.
B1: wild type RNase J, BACTH fusions (pUT18 and pKNT25) [Helicobacter pylori] / wild type RNase J, BACTH fusions (pUT18 and pKNT25) [Helicobacter pylori] (parent)
chain 1: MTDNNQNNENHENSSENSKADEMRAGAFERFTNRKKRFRENAQKNAEYSNHEASSHHKKEHRPNKKPNNHHKQKHAKTRNYAQEELDSNKVEGVTEILHVNERGTLGFHKELKKGVEANNKIQVEHLNPHYKMNLNSKASVKITPLGGLGEIGGNMMVIETPKSAIVIDAGMSFPKEGLFGVDILIPDFSYLHQIKDKIAGIIITHAHEDHIGATPYLFKELQFPLYGTPLSLGLIGSKFDEHGLKKYRSYFKIVEKRCPISVGEFIIEWIHITHSIIDSSALAIQTKAGTIIHTGDFKIDHTPVDNLPTDLYRLAHYGEKGVMLLLSDSTNSHKSGTTPSESTIAPAFDTLFKEAQGRVIMSTFSSNIHRVYQAIQYGIKYNRKIAVIGRSMEKNLDIARELGYIHLPYQSFIEANEVAKYPDNEILIVTTGSQGETMSALYRMATDEHRHISIKPNDLVIISAKAIPGNEASVSAVLNFLIKKEAKVAYQEFDNIHVSGHAAQEEQKLMLRLIKPKFFLPVHGEYNHVARHKQTAISCGVPEKNIYLMEDGDQVEVGPAFIKKVGTIKSGKSYVDNQSNLSIDTSIVQQREEVASAGVFVATIFVNKNKQALLESSQFSSLGLVGFKDEKPLIKEIQGGLEVLLKSSNAEILNNPKKLEDHTRNFIRKALFKKFRKYPAIICHAHSF
chain 2: B1 chain 1

- Variants of: B1
- assay-details: BACTH (bacterial two hybrid), beta-galactosidase read-out
- settings: with wild type RNase J, in E. coli, RNJ WT on pUT18, mutant on pKNT25, n ≥ 6, parent: 430, read off a plot
Give bare numbers, in Miller units.

>>> test_result("chain 1 E661A")
180
>>> test_result("chain 1 E652A")
210
>>> test_result("chain 1 K647A")
130
>>> test_result("chain 1 E594A")
440
>>> test_result("chain 1 E616A")
220
>>> test_result("chain 1 K609A")
500
>>> test_result("chain 1 K632A")
380
>>> test_result("chain 1 K658A")
220

Okay, next one:
Query: Please give the measured response for this variant: chain 1 E593A
Reply: 520
